# Test system: virus isolate from an eye IDU treated with without result
# experimental_details: VSA on a virus isolate from an eye treated with IDU without result (Example 3)
# Type: cell-based
# reported_conditions: C5: Ara-A 80, ACV 2.5, PFA 400, IDU 8 μM; C0 1.605
observable: adsorbance values
Please state the value as a number alone, without comment.

# example entries with known answers
{"compound": "Nc1ncnc2c1ncn2C1OC(CO)C(O)C1O (stereo not shown) [Ara-A, adenosine-arabinoside]", "measured_number": 0.071}
{"compound": "O=c1[nH]c(=O)n([C@H]2C[C@H](O)[C@@H](CO)O2)cc1I [IDU, iododeoxyuridine]", "measured_number": 0.706}
{"compound": "O=C(O)P(=O)(O)O [PFA, phosphonoformic acid]", "measured_number": 0.092}

Alright, here's another compound for you.
Lab note: measured adsorbance values of Nc1nc2c(ncn2COCCO)c(=O)[nH]1 [ACV, acyclovir] was 1.475

###

# Tested on: virus isolate from an eye IDU treated with without result
# experimental_details: VSA on a virus isolate from an eye treated with IDU without result (Example 3)
# Type: cell-based
# reported_conditions: C1: Ara-A 5, ACV 0.15, PFA 25, IDU 0.5 μM; C0 (no agent) 1.605
observable: adsorbance values
Please state the value as a number alone, without comment.

# example entries with known answers
{"compound": "O=C(O)P(=O)(O)O", "tested_on": "virus isolate from an eye IDU treated with without result", "measured_number": 1.487}
{"compound": "Nc1nc2c(ncn2COCCO)c(=O)[nH]1", "tested_on": "virus isolate from an eye IDU treated with without result", "measured_number": 1.608}
{"compound": "Nc1ncnc2c1ncn2C1OC(CO)C(O)C1O (stereo not shown) [Ara-A, adenosine-arabinoside]", "tested_on": "virus isolate from an eye IDU treated with without result", "measured_number": 1.572}

Alright, here's another compound for you.
Lab note: measured adsorbance values of O=c1[nH]c(=O)n([C@H]2C[C@H](O)[C@@H](CO)O2)cc1I was 1.207

###

Measured adsorbance values, listed per entry for reference.
# Test system: virus isolate from an eye IDU treated with without result
# experimental_details: VSA on a virus isolate from an eye treated with IDU without result (Example 3)
# Assay type: cell-based
# reported_conditions: C2: Ara-A 10, ACV 0.31, PFA 50, IDU 1 μM; C0 1.605
Please state the value as a number alone, without comment.

{"molecule": "Nc1ncnc2c1ncn2C1OC(CO)C(O)C1O (stereo not shown) [Ara-A, adenosine-arabinoside]", "adsorbance values": 1.482}
{"molecule": "O=c1[nH]c(=O)n([C@H]2C[C@H](O)[C@@H](CO)O2)cc1I [IDU, iododeoxyuridine]", "adsorbance values": 1.165}

Lab note: measured adsorbance values of Nc1nc2c(ncn2COCCO)c(=O)[nH]1 [ACV, acyclovir] was 1.615

Lab note: measured adsorbance values of O=C(O)P(=O)(O)O [PFA, phosphonoformic acid] was 1.502
